For each entry below, report its pIC50 value.
- study-target: voltage-gated sodium channel Nav1.5 (Homo sapiens (Human))
- Sequence (Q14524 whole entry): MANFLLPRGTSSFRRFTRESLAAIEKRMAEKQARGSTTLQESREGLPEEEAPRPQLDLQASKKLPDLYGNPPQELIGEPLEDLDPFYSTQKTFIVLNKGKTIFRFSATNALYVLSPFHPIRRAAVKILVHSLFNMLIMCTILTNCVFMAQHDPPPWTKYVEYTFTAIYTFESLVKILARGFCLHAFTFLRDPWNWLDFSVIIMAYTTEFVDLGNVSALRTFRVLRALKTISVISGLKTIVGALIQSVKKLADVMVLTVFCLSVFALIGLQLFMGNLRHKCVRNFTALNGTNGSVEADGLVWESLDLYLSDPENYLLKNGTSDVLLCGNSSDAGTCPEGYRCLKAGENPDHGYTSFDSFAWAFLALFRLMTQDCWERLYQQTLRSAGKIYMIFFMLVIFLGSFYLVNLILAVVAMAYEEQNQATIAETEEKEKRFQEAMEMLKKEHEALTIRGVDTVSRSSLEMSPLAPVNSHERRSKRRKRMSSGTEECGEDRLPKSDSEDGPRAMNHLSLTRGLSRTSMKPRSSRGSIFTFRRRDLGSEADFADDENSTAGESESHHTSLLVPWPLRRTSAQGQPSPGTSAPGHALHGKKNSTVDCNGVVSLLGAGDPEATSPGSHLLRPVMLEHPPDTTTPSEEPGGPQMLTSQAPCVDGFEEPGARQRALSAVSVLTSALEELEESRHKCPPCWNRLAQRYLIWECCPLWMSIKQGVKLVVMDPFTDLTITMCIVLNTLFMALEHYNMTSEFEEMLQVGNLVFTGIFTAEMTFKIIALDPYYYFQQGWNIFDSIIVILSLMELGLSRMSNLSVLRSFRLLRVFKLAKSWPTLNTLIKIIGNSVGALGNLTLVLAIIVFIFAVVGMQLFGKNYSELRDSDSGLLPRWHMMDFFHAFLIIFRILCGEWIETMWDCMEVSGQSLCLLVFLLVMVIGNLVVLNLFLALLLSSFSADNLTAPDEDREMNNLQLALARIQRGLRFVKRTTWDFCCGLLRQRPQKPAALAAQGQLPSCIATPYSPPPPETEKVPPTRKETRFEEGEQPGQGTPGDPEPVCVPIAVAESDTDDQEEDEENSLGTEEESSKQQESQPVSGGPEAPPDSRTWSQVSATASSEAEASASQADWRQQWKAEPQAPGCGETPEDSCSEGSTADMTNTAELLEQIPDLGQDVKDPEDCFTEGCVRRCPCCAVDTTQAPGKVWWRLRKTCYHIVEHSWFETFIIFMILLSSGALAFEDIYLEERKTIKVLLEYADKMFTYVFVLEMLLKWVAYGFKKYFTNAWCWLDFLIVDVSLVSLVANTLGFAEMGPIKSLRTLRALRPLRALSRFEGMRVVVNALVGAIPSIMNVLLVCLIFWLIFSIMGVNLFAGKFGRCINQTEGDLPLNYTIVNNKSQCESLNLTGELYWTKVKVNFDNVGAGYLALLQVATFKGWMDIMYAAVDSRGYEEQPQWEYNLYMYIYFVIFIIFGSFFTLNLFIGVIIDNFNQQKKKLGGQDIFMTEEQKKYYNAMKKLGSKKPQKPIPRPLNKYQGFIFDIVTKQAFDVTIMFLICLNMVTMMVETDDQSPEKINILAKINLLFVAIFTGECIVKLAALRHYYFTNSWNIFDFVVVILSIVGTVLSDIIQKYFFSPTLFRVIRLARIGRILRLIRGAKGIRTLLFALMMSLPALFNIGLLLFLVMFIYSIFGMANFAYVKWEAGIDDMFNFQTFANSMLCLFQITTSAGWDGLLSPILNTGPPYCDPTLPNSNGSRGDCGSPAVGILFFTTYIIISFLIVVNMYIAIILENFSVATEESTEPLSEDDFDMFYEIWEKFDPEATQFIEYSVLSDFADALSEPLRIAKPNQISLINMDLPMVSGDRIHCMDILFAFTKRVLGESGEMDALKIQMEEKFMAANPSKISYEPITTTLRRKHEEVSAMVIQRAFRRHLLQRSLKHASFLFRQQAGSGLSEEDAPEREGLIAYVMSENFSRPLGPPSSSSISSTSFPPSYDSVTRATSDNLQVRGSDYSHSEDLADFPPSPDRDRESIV
- assay-comment: Nav1.5 screening assay, IonWorks Quattro automated patch-clamp electrophysiology
- Format: cell-based
- experimental-context: stable cell line expressing Nav1.5; holding potential −120 mV; compound incubation 5 minutes; IC50 fitted to percent block; read-out: Nav 1.5 IC50
pIC50: −log10 of the molar value.

Record excerpt, results attached:
| mol | study-target | pIC50 |
| --- | --- | --- |
| Cc1c(F)cccc1-n1nnc(C(=O)Nc2ccc(Cl)cn2)c1N | voltage-gated sodium channel Nav1.5 (Homo sapiens (Human)) | < 4.48 |
| COc1ccccc1-n1ncc(C(=O)Nc2ccc(Cl)cc2)c1N | voltage-gated sodium channel Nav1.5 (Homo sapiens (Human)) | 4.68 |
| CCc1ccccc1-n1ncc(C(=O)Nc2ccc(OCC(F)(F)F)cn2)c1N | voltage-gated sodium channel Nav1.5 (Homo sapiens (Human)) | < 4.48 |
| Cc1c(F)cccc1-n1ncc(C(=O)N2CCc3cc(Cl)ccc32)c1N | voltage-gated sodium channel Nav1.5 (Homo sapiens (Human)) | < 4.48 |
| CCc1nn(-c2ccccc2OC)c(N)c1C(=O)Nc1ccc(C(F)(F)F)cn1 | voltage-gated sodium channel Nav1.5 (Homo sapiens (Human)) | < 4.48 |

Kindly review the next compound as well.
Query string: // returns reported pIC50 for input `Nc1c(C(=O)Nc2ccc(Cl)cn2)cnn1-c1ccccc1-c1cccnc1`
Result string: 4.77
